The origin of these recorded values is patent US20250051277A1.

Format: physicochemical
conditionSummary: SGF with pepsin, pH 1.5, 37° C., 0.5 mM; time 1 min
For each record, write down the corresponding Condition 1 Conversion (%).
One number for each entry, in %.

Example results:
compound="COc1ccc([C@@]23CC/C(=N/OC45CC6CC(CC(C6)C4)C5)C[C@@H]2N(C)CC3)cc1OC [Compound 301]" assayendpoint="Condition 1 Conversion (%)" unittag=% quantitativeresult=0
compound=C/C=C(\C)C(=O)OC1=C[C@@H]2N(C)CC[C@]2(c2ccc(OC)c(OC)c2)CC1 assayendpoint="Condition 1 Conversion (%)" unittag=% quantitativeresult=0
compound=COc1ccc([C@@]23CC/C(=N\NC(=O)c4ccccc4C(=O)O)C[C@@H]2N(C)CC3)cc1OC assayendpoint="Condition 1 Conversion (%)" unittag=% quantitativeresult=33.93
compound=COc1ccc([C@@]23CCC(=NNC(C)=O)C[C@@H]2N(C)CC3)cc1OC assayendpoint="Condition 1 Conversion (%)" unittag=% quantitativeresult=100
compound=COc1ccc([C@@]23CCC(=NOCCON=C4CC[C@@]5(c6ccc(OC)c(OC)c6)CCN(C)[C@H]5C4)C[C@@H]2N(C)CC3)cc1OC assayendpoint="Condition 1 Conversion (%)" unittag=% quantitativeresult=0

Your task in this section: give Condition 1 Conversion (%) for each listed record.
1. COc1ccc([C@@]23CCC(=NOCC(=O)O)C[C@@H]2N(C)CC3)cc1OC
2. COc1ccc([C@@]23CCC(=NNc4ccc(F)cc4)C[C@@H]2N(C)CC3)cc1OC

1. 0
2. 10

---

Type: physicochemical
conditionSummary: SGF with pepsin, pH 1.5, 37° C., 0.5 mM; time 1 h
Note to self: Condition 1 Conversion (%) under 3% means satisfied, ties and anything higher get not satisfied.

// below: answered compounds
compound="COc1ccc([C@@]23CCC(=NO)C[C@@H]2N(C)CC3)cc1OC (mixture of isomers) [Compound 037]" cat="not satisfied"
compound="COc1ccc([C@@]23CCC(OC(=O)C(C)(C)C)=C[C@@H]2N(C)CC3)cc1OC [Compound 309]" cat=satisfied
compound="COc1ccc([C@]23CCN(C)[C@H]2CC2(CC3)OC[C@H]([C@@H](O)[C@@H](O)Cn3c4nc(=O)[nH]c(=O)c-4nc4cc(C)c(C)cc43)O2)cc1OC (stereo partly drawn) [Compound 174]" cat=satisfied
compound="COc1ccc([C@@]23CCC(=NNC(=O)C(=O)O)C[C@@H]2N(C)CC3)cc1OC [Compound 241]" cat="not satisfied"
compound="COc1ccc([C@@]23CCC(=NNC(=O)CC[C@H](NC(=O)c4ccc(NCc5cnc6nc(N)nc(O)c6n5)cc4)C(=O)O)C[C@@H]2N(C)CC3)cc1OC [Compound 172]" cat="not satisfied"
compound="COc1ccc(C23CCN(C)C2CC2(CC3)OCCO2)cc1OC (stereo not drawn) [Compound 044]" cat=satisfied
compound="COc1ccc([C@@]23CCC(=NNCc4ccccn4)C[C@@H]2N(C)CC3)cc1OC [Compound 369]" cat="not satisfied"
compound="C/C=C(\\C)C(=O)OC1=C[C@@H]2N(C)CC[C@]2(c2ccc(OC)c(OC)c2)CC1 [Compound 313]" cat=satisfied

Hello, I'm reviewing records and need to know if Condition 1 Conversion (%) of COc1ccc([C@@]23CCC(=NOCC4CC4)C[C@@H]2N(C)CC3)cc1OC [Compound 205] is below 3%. Could you check? not satisfied
